- TARGET_OR_TEST_SYSTEM: A3Fc-CD2 W310A (human, UniProt Q9HC16 197-221+Q8IUX4:220-373, W310A;internal_change)
- ASSAY_METHOD_TEXT: BLI
OBSERVED_PROPERTY: Kd (µM)
# value in µM; strip the unit string

Kd reading for TCCCTCAGACCCTTTTAGTCAGTGTGGAAAATCTCTAGCAGT (ssDNA) [42-mer ssDNA, viral U5 end of 3'-LTR] : 27

Data provenance is paper PMC4956467.
